TEST_TARGET: T1, human TPBG antigen immobilized on a CM5 chip (human, UniProt Q13641 32-355, limits assumed)
T1 sequence (looked up): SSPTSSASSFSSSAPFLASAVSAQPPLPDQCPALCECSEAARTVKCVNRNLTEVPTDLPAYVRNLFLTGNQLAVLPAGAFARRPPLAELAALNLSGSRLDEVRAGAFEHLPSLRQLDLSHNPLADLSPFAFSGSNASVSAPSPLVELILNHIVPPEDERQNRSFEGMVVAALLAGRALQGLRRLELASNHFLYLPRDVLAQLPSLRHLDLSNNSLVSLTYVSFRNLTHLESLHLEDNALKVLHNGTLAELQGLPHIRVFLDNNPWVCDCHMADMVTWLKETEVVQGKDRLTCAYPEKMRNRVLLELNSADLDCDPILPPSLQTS
ASSAY_NAME: SPR (Biacore), human TPBG antigen immobilized on CM5 chip
Procedure: To assess the binding specificity and affinity of the humanized anti-TPBG antibody, Biacore analysis was performed using human TPBG antigen immobilized on a CM5 chip. Biacore technique utilizes the change in the refractive index of surface layer after antibody binding to the TPBG antigen immobilized on the surface layer. The binding was determined by surface plasmon resonance (SPR) through detecting the laser refracted from the surface. […]
METRIC_NAME: kon (M⁻¹ s⁻¹)

BINDER	VALUE
Humanized antibody 12B12-16 (antibody, V domains shown, also called h12B12-16) VH: EVQLVESGGGVVQPGRSLRLSCAASGFTFSNFGMHWVRQAPGKGLEWVAYISSGSTSFYYADTVKGRFTISRDNSKNTLYLQMNSLRAEDTAVYYCSRTNSLLRGFFDAWGQGTTVTVSS VL: DIVLTQTPLSLSVTPGQPASISCRASQSVSSSSYTYLHWYLQKPGQPPQLLIKSASNLESGVPDRFSGSGSGTDFTLKISRVEAEDVGVYYCQHSWEIPLTFGQGTKLEIK	1.59e+06
